These entries and their values trace back to ChEMBL document CHEMBL2163218.

parameter-measured: pKi
For clarity, pKi is expressed as the negative log10 of concentration in mol/L.

Enter pKi (test system Protease (Human immunodeficiency virus 1, UniProt Q9YQ12)) for "CC[C@H](C)CN(C[C@@H](O)[C@H](Cc1ccccc1)NC(=O)OC[C@@H](C)C(=O)OC)S(=O)(=O)c1ccc2ncsc2c1" 8.86

Enter pKi (test system Protease (Human immunodeficiency virus 1, UniProt Q9YQ12)) for "CCCCCN(C[C@@H](O)[C@H](Cc1ccccc1)NC(=O)O[C@H](C)CC(=O)OC)S(=O)(=O)c1ccc2ncsc2c1" 7.94

Enter pKi (test system Protease (Human immunodeficiency virus 1, UniProt Q9YQ12)) for "CCCCCN(C[C@@H](O)[C@H](Cc1ccccc1)NC(=O)OCCN1CCOC1=O)S(=O)(=O)c1ccc2ncsc2c1" 10.77

Enter pKi (test system Protease (Human immunodeficiency virus 1, UniProt Q9YQ12)) for "CC[C@H](C)CN(C[C@@H](O)[C@H](Cc1ccccc1)NC(=O)OCCNC(=O)C(F)(F)F)S(=O)(=O)c1ccc(OC)cc1" 7.92

----------
Target: Protease (Human immunodeficiency virus 1)
Sequence (Q9YQ12 whole entry): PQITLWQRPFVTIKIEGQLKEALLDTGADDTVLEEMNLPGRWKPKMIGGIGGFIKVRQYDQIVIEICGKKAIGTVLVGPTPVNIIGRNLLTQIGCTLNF
Assay: Inhibition of wild type HIV1 protease by FRET assay
parameter-measured: pKi
For clarity, pKi is expressed as the negative log10 of concentration in mol/L.

Consider the compound "CCCCCN(C[C@@H](O)[C@H](Cc1ccccc1)NC(=O)OCCNC(=O)OC(C)(C)C)S(=O)(=O)c1ccc2ncsc2c1" . State its measured pKi. 8.89

Consider the compound "CCCCCN(C[C@@H](O)[C@H](Cc1ccccc1)NC(=O)OCCNC(=O)C(F)(F)F)S(=O)(=O)c1ccc2ncsc2c1" . State its measured pKi. 7.71

Consider the compound "CCCCCN(C[C@@H](O)[C@H](Cc1ccccc1)NC(=O)OCCNC(=O)OC(C)(C)C)S(=O)(=O)c1ccc(OC)cc1" . State its measured pKi. 8.53

Consider the compound "CCCCCN(C[C@@H](O)[C@H](Cc1ccccc1)NC(=O)O[C@@H]1CCOC1=O)S(=O)(=O)c1ccc(OC)cc1" . State its measured pKi. 7.18

Consider the compound "CCCCCN(C[C@@H](O)[C@H](Cc1ccccc1)NC(=O)O[C@@H]1CCOC1=O)S(=O)(=O)c1ccc2ncsc2c1" . State its measured pKi. 7.38

Consider the compound "CC[C@H](C)CN(C[C@@H](O)[C@H](Cc1ccccc1)NC(=O)O[C@H](C)CCC(C)=O)S(=O)(=O)c1ccc(OC)cc1" . State its measured pKi. 9.37

Consider the compound "CC[C@H](C)CN(C[C@@H](O)[C@H](Cc1ccccc1)NC(=O)OCCN1CCOC1=O)S(=O)(=O)c1ccc2ncsc2c1" . State its measured pKi. 11.30

Consider the compound "CCCCCN(C[C@@H](O)[C@H](Cc1ccccc1)NC(=O)OC[C@@H](C)C(=O)OC)S(=O)(=O)c1ccc2ncsc2c1" . State its measured pKi. 8.48

Consider the compound "CC[C@H](C)CN(C[C@@H](O)[C@H](Cc1ccccc1)NC(=O)O[C@@H]1CCOC1=O)S(=O)(=O)c1ccc(OC)cc1" . State its measured pKi. 7.45

----------
Test system: Human immunodeficiency virus 1
Test: Antiviral activity against wild type HIV1 clade A isolated form HIV1 patient infected in HEK293 cells assessed as reduction in viral replication incubated for 48 hrs by luciferase reporter based assay
Assay type: functional, organism-based
Settings: Human immunodeficiency virus 1, clade A, HEK293, 48 h
Field: pEC50. Provide a value for each of the compounds that follow.
For clarity, pEC50 is expressed as the negative log10 of concentration in mol/L.

Consider the compound "CC[C@H](C)CN(C[C@@H](O)[C@H](Cc1ccccc1)NC(=O)OCCN1CCOC1=O)S(=O)(=O)c1ccc(OC)cc1" . State its measured pEC50. 7.36

Consider the compound "CC(C)CN(C[C@@H](O)[C@H](Cc1ccccc1)NC(=O)O[C@H]1CO[C@H]2OCC[C@H]21)S(=O)(=O)c1ccc(N)cc1" . State its measured pEC50. 9.52

Consider the compound "CC[C@H](C)CN(C[C@@H](O)[C@H](Cc1ccccc1)NC(=O)OCCN1CCNC1=O)S(=O)(=O)c1ccc(OC)cc1" . State its measured pEC50. 7.02

Consider the compound "CC[C@H](C)CN(C[C@@H](O)[C@H](Cc1ccccc1)NC(=O)OCCN1CCNC1=O)S(=O)(=O)c1ccc2ncsc2c1" . State its measured pEC50. 7.50

Consider the compound "CCCCCN(C[C@@H](O)[C@H](Cc1ccccc1)NC(=O)OCCN1CCOC1=O)S(=O)(=O)c1ccc(OC)cc1" . State its measured pEC50. 6.90
